# Test system: ACHN renal
# METHOD NOTES: NCI tumour cell line growth inhibition, 48 h
MEASURE: TGI

Short answer for CN(C)c1ccc(C(c2ccc(Cl)cc2)c2ccc(N(C)C)cc2)cc1 : TGI was > 100 µM

Short answer for CC(=O)NNc1nc(C)c(C(=O)NNC(=O)C(=O)Nc2ccc([N+](=O)[O-])cc2C#N)s1 : TGI was > 100 µM

Short answer for O=c1oc2ccc(-c3ccc(F)cc3F)cc2c(=O)n1-c1ccc(Cl)c(C(F)(F)F)c1 : TGI was 9.8 µM

Short answer for Cc1ccc(-c2nc(-c3cn(C)c4ncccc34)cs2)cc1 : TGI was 29.2 µM

Short answer for CC1NC(=O)C2=C1C(N)=NC(=O)C2 (stereo unspecified) : TGI was > 100 µM

Short answer for O=C(CC(=O)c1cccc(Cl)c1)c1cccc(Cl)c1 : TGI was > 100 µM

Short answer for CNS(=O)(=O)OCC1OC(n2cnc3c(N)ncnc32)C(O)C1O (stereo unspecified) : TGI was > 100 µM

Short answer for O=c1[nH]c(=O)n(C2OC(CO)C(O)C2O)cc1OCC(F)(F)F (stereo unspecified) : TGI was > 100 µM

Short answer for N#CCN(CC#N)C1CC=CCC1N(CC#N)CC#N (stereo unspecified) : TGI was > 100 µM

Short answer for CCOC(=O)C1([Se]c2ccccc2)CCCC1=O (stereo unspecified) : TGI was 43.2 µM

Short answer for COc1cccc2c1C(=O)OC2c1cccc2ccccc12 (stereo unspecified) : TGI was > 100 µM

Short answer for NNC(=O)c1ccc(OCc2nc3ccccc3[nH]2)cc1 : TGI was > 100 µM

Short answer for CCN(CC)CCCNc1[nH]ncc2c(C)c3nc4ccc(OC)cc4c3cc12 : TGI was 5.95 µM

Short answer for C#CC1(O)CCC2[C@@H]3CCc4cc(Oc5nc(F)nc(-c6c7ccccc7cn6C)n5)ccc4C3CC[C@@]21C (stereo partly specified) : TGI was > 100 µM

Short answer for O=C(c1ccccc1)n1c(-c2ccccc2)cs/c1=N\S(=O)(=O)c1ccc(N2N=C3c4ccccc4CC3C2c2cccs2)cc1 (stereo unspecified) : TGI was > 100 µM

Short answer for COc1ccc2c3c([nH]c2c1)CCN(Cc1ccccc1)C3 : TGI was > 100 µM

Short answer for COc1cc(NC=C2C(=O)OC(C)(C)OC2=O)c(OC)c(C)c1OC : TGI was > 100 µM

Short answer for CC[C@H](C)C1=C(O)[N@+]2([O-])Oc3ccc(-c4c(O)c(O)c(-c5ccc(O)cc5)c(OC(C)=O)c4OC(C)=O)cc3O[C@]2([C@@H](C)CC)C(=O)N1O : TGI was > 50 µM

Short answer for CC1(C)OC[C@@H](O)[C@H](Br)CO1 : TGI was > 100 µM

Short answer for Cc1c(C(N)=O)sc2c1c(=O)n(Cc1ccccc1)c1nnc(-c3ccc(Br)cc3)n21 : TGI was 12.3 µM

Short answer for Cc1cc(Nc2cc(N3CCN(C)CC3)nc(Sc3ccc(NC(=O)C4CC4)cc3)n2)n[nH]1 : TGI was > 10 µM

* * *

Would you mind telling me the reported TGI of each entry?
# Test system: NCI-H23 lung
# METHOD NOTES: NCI tumour cell line growth inhibition, 48 h

Short answer for C#CC1(O)CCC2[C@@H]3CCc4cc(Oc5nc(F)nc(-c6c7ccccc7cn6C)n5)ccc4C3CC[C@@]21C (stereo partly specified) : TGI was > 100 µM

Short answer for Cc1cccc(NC(=O)/C=C/c2ccc([N+](=O)[O-])cc2)c1 : TGI was 31.7 µM

Short answer for OC12c3ccccc3C3CCC4(OCCO4)C3C1c1ccccc12 (stereo unspecified) : TGI was > 100 µM

Short answer for COc1ccccc1NS(=O)(=O)c1ccc2oc(SC(C)C)nc2c1 : TGI was > 100 µM

Short answer for COC(=O)/C=C(\S/C=C(/c1ccccc1)N1CCn2c(C(=O)c3ccccc3)c(C(=O)OC)c(C(=O)OC)c21)C(=O)OC : TGI was > 10 µM

Short answer for N#Cc1ccc2cc3c(cc2c1)OCO3 : TGI was > 100 µM

Short answer for Cc1ccc2[nH]c3[nH]c(=S)[nH]c(=O)c3c2c1 : TGI was > 100 µM

Short answer for Cc1cc(=O)[nH]c(CNC(=O)c2cccc(C(=O)NCc3cc(=O)[nH]c(C)n3)c2)n1 : TGI was > 100 µM

Short answer for COc1cc(-n2ccnc2)cc(OC)c1OC : TGI was > 100 µM

Short answer for CCOC(=O)c1cnn2c3ccccc3n(S(=O)(=O)c3ccc(OC)cc3)c12 : TGI was > 100 µM

Short answer for CCCCCCCCCCCCCC(=O)CSCCNC(=O)CCNC(=O)[C@@H](O)C(C)(C)COP(=O)(O)OP(=O)(O)OCC1OC(n2cnc3c(N)ncnc32)C(O)C1OP(=O)(O)O (stereo partly specified) : TGI was 42 µM

Short answer for C=C(C)C(=O)O[C@@H]1C/C(C)=C\[C@H](OC(C)=O)C[C@](C)(O)/C=C2/OC(=O)C(COC(C)=O)=C21 : TGI was 5.21 µM

Short answer for CN(C)c1ccc(C(c2ccc(Cl)cc2)c2ccc(N(C)C)cc2)cc1 : TGI was > 100 µM

Short answer for Cc1ccc(S(=O)(=O)N/N=C2/CC3CCC4CC2CC34)cc1 (stereo unspecified) : TGI was > 100 µM

Short answer for O=c1[nH]c(=O)n(C2CC(O)C(CO)O2)cc1C#Cc1ccc(F)cc1 (stereo unspecified) : TGI was > 100 µM

Short answer for COC(=O)[C@@H]1CC(C(CN)c2cn(C(=O)OC(C)(C)C)c3ccccc23)C(=O)N1C(=O)OC(C)(C)C (stereo partly specified) : TGI was > 100 µM

Short answer for COc1ccc(-n2c(=O)n(-c3ccccc3)c(=O)n2-c2ccc(OC)cc2)cc1 : TGI was > 100 µM

Short answer for O=C(CC(=O)c1cccc(Cl)c1)c1cccc(Cl)c1 : TGI was > 100 µM

Short answer for Nc1nc(N)c2cc(Sc3cccc(C(F)(F)F)c3)ccc2n1 : TGI was 16.4 µM

Short answer for COc1cc(NC=C2C(=O)OC(C)(C)OC2=O)c(OC)c(C)c1OC : TGI was > 100 µM

Short answer for COc1cc2c(=O)n(CCN(C)C)c3c4cc5c(cc4ccc3c2cc1OC)OCO5 : TGI was 1.38 µM

Short answer for C#CCN(C(=O)C(F)(F)F)c1ccc(C(=O)c2ccc(N(CC#C)C(=O)C(F)(F)F)cc2)cc1 : TGI was 71.6 µM

Short answer for COc1c2c(cc3c1C1(O)Cc4ccc5c(c4C[N+]1(C)CC3)OCO5)OCO2 (stereo unspecified) : TGI was > 100 µM

Short answer for O=C(CCc1nnc2s/c(=C\c3ccccc3Cl)c(=O)n12)Nc1cc(Cl)ccc1Cl : TGI was > 100 µM

Short answer for Oc1[nH]c2ccccc2c1N=Nc1c(F)c(F)c(F)c(F)c1F : TGI was > 100 µM

Short answer for COc1cccc2cc(C(C)=O)c(=O)oc12 : TGI was > 100 µM

Short answer for CC(C)(C)OC(=O)c1cccnc1/C=N/O : TGI was > 100 µM

Short answer for O=C(NCc1ccco1)c1cccc(NC2=C(Cl)C(=O)N(Cc3ccccc3)C2=O)c1 : TGI was 33.3 µM

Short answer for CN1C(=O)CC2CCC(=O)N2c2cccnc21 (stereo unspecified) : TGI was > 100 µM

Short answer for COc1ccc(C(CC(=O)c2ccccc2)C(C(=O)c2ccccc2)C(c2ccc(OC)cc2)C2C(=O)NC(=S)NC2=O)cc1 (stereo unspecified) : TGI was 46.6 µM

Short answer for CCOC(=O)CN1CC(C2=C(O)CN(CC(=O)OCC)C2=O)=CC1=O : TGI was > 100 µM

Short answer for Cn1c(=S)c2[nH]c(SCCN3C(=O)c4ccccc4C3=O)nc2n(C)c1=O : TGI was > 100 µM

Short answer for O=C(/C=C/C12c3ccccc3C(c3ccccc31)C1C(=O)NC(=O)C12)c1ccc(Cl)cc1 (stereo unspecified) : TGI was 3.83 µM

Short answer for CNS(=O)(=O)OCC1OC(n2cnc3c(N)ncnc32)C(O)C1O (stereo unspecified) : TGI was > 100 µM

Short answer for CCCN(CCC)c1c([N+](=O)[O-])cc(C(=O)N(CCO)CCO)cc1[N+](=O)[O-] : TGI was > 100 µM

Short answer for O=S(=O)(Nc1ccc(F)c(Cl)c1)c1ccc(-c2cnc(C3CC3)o2)cc1 : TGI was 11.3 µM

Short answer for O=C1CCCCC/C1=C\c1ccccc1 : TGI was > 100 µM

Short answer for Cc1cnc(Nc2ccc(N3CCN(C)CC3)cc2)nc1Nc1ccc(Cl)c(NS(=O)(=O)C(C)(C)C)c1 : TGI was 6.55 µM

Short answer for Cc1ccc(O)c(C2=CC(c3cccc(Br)c3)SC(N)=N2)c1 (stereo unspecified) : TGI was 76.3 µM

Short answer for N#C/C(N)=C(\C#N)N=CNc1ccc(N)cc1 : TGI was > 100 µM

Short answer for CC1C2=C(CCCC2=O)N(c2ccc(Cl)cc2)C2=C1C(=O)CCC2 : TGI was > 100 µM
